Hi there, I'd appreciate the recorded z-score for every entry that follows.
measured.target: Homeobox protein Hox-A13 (Mus musculus)
run.description: inhibitors of HoxA13-DNA binding, primary screen, biochemical, fluorescence polarization, labeled oligonucleotide (AID 1185)
test.conditions: 15 min, higher = more signal, called active from +8 up or from −8 down
// no unit string in output, number only

Req: Entry C=CCOC(=O)[C@@H]1[C@H]2C(=O)O[C@H](c3ccccc3)[C@H](c3ccccc3)N2[C@H](c2ccc(OCCOC(=O)[C@@H]3C[C@@H]4C(=O)N[C@@H](CC(C)C)C(=O)N4[C@@H]3c3ccc(O)cc3)cc2)[C@@]12C(=O)Nc1ccc(I)cc12 : reported z-score = ?
Resp: 0.374

Req: Request: C=CC[C@]1(C(N)=O)N=C(c2ccc(OCCCO)cc2)O[C@H]1c1ccccc1N=[N+]=[N-]
Resp: -5.2

Req: One more compound: COC(=O)[C@@]1(Cc2ccc(F)cc2)[C@H]2c3cc(C(=O)N4CCCC4)n(Cc4ccc(OC(F)(F)F)cc4)c3C[C@H]2CN1C(=O)c1ccccc1
Resp: -3.8

Req: Entry to check: COc1ccc(CCNC(=O)[C@@H]2c3ccccc3C(=O)N(C(C)C)[C@H]2c2ccc(CO)cc2)cc1
Resp: -2.13

Every entry's value here was drawn from PubChem BioAssay.
